- Measured target: Hexokinase-4 (Homo sapiens, UniProt P35557)
- Sequence (P35557 whole entry): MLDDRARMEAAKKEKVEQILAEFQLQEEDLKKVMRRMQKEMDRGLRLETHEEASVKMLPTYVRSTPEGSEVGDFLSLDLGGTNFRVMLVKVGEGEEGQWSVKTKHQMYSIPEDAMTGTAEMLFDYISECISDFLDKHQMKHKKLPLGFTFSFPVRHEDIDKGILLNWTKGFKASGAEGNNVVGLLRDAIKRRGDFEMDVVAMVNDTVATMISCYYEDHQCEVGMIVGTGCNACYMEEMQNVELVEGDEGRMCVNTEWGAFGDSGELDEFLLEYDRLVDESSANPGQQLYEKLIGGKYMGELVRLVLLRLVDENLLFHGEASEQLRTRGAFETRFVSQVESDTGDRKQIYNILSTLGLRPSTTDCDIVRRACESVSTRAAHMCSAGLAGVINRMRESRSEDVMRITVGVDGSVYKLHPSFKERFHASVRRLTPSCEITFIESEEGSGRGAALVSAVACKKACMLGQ
- Test summary: Activation of glucokinase (unknown origin)
Experimental readout: EC50 (nM)
State the answer as a number, implicitly in nM.

> print(dat)
                                   compound   val
1  Cc1cc(S(=O)(=O)C2CCCC2)cc(=O)n1C(CC1CCCCO1)C(=O)Nc1nccs1 (racemic)  1000
2  O=C(NC1CC1)c1ccc2c(=O)n(C(CC3CCCCO3)C(=O)Nc3ncc(Cl)s3)cnc2c1 (racemic)  1200

Would you mind telling me what EC50 value was observed for CC(C)C[C@@H](C(=O)Nc1nccs1)n1c(=O)[nH]c2ccccc2c1=O ?
50000

I would be grateful if you could share the reported EC50 for CS(=O)(=O)N1CCN(C(CC2CCCCC2)C(=O)Nc2nccs2)C(=O)C1 (racemic) .
1600

Looking for the measured EC50 of Cc1cc(S(=O)(=O)C2CC2)cc(=O)n1[C@@H](CC1CCCC1)C(=O)Nc1ncc(F)s1 , can you help?
630

Value lookup for EC50; key = O=C(Nc1ncc(F)s1)[C@H](CC1CCCCC1)n1cnc2cc(S(=O)(=O)C3CCCC3)ccc2c1=O
310

Item O=C(Nc1nccs1)[C@H](CC1CCCCC1)n1c(=O)[nH]c2ccc(F)cc2c1=O has what recorded EC50?
3100

Name the reported EC50 value associated with the compound CS(=O)(=O)c1ccc2c(=O)n([C@@H](CC3CCCCC3)C(=O)Nc3nccs3)c(=O)[nH]c2c1
1000

Which EC50 is reported for this compound? O=C(Nc1nccs1)[C@H](CC1CCCC1)n1cnc2cc(S(=O)(=O)C3CC3)ccc2c1=O
2000
